The measurements presented in this section are drawn from ChEMBL document CHEMBL3991601.

Calls of active or inactive are those of the source.
# Kd per entry for Activin receptor type-1 (Homo sapiens)

{"columns": ["MOLECULE", "Kd"],
 "data": [
  ["Cc1cc(C(=O)Nc2cc(Oc3ccc4nc(NC(=O)C5CC5)cn4n3)ccc2C)n(C)n1", "> 30 µM (inactive)"]
]}

Ask: Give measured Kd for "CC[C@@](C)(Nc1ccnc(-c2c[nH]c3ncccc23)n1)C(=O)NCC(F)(F)F" (Activin receptor type-1 (Homo sapiens)).
Result: > 30 µM (inactive)

Ask: Please tell me the measured Kd for COc1cc2ncnc(Nc3ccc(F)c(Cl)c3)c2cc1NC(=O)/C=C/CN1CCCCC1 [DACOMITINIB ANHYDROUS] ; system: Activin receptor type-1 (Homo sapiens). Further: in the data inactive means no Kd found up to 30 µM.
Sequence (Q04771 whole entry): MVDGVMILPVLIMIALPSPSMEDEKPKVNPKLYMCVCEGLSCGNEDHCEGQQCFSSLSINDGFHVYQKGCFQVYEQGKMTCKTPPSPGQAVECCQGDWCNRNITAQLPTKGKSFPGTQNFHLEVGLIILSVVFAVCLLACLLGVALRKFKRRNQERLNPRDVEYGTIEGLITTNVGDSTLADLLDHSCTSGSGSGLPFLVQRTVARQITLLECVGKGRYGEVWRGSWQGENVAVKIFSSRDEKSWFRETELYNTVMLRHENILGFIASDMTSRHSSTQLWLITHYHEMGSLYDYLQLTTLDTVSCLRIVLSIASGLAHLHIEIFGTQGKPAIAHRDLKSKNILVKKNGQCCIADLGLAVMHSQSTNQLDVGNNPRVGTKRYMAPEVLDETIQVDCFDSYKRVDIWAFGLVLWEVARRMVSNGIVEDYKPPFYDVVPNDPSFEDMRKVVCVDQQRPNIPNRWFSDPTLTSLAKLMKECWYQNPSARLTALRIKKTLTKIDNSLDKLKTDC
Result: > 30 µM (inactive)
